Biological target: hNTS2 receptor (Homo sapiens, UniProt O95665)
Construct: membranes prepared from them
Sequence (O95665 whole entry): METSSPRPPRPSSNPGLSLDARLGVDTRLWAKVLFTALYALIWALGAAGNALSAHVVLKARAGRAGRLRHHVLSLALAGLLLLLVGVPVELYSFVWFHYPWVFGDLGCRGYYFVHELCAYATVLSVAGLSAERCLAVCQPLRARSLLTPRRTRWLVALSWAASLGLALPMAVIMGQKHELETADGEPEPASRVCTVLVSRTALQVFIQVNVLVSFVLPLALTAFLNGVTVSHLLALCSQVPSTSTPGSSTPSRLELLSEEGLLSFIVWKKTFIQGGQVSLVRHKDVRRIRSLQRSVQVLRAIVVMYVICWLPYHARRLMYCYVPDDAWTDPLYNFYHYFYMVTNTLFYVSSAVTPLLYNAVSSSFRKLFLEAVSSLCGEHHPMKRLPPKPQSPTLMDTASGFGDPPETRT
Assay: Competitive radioligand binding assay on the hNTS2 receptor
Settings: ratio IC50 for NTS1 : IC50 for NTS2
Where a SMILES comes first, the peptide text is derived from it. Bridges are numbered along the chain shown (N, C = ends). [ ]: non-standard residue; d: D form. Ala(cPr) = N[C@@H](CC1CC1)C(=O)O; dAllylGly = C=CC[C@@H](N)C(=O)O; AllylGly = C=CC[C@H](N)C(=O)O; Orn = NCCC[C@H](N)C(=O)O
Quantity measured: Selectivity

Below: 2 compounds and their reported Selectivity.
Compound	Selectivity
CC(C)C[C@H](NC(=O)[C@H](Cc1ccc(O)cc1)NC(=O)[C@@H]1CC=CC[C@H](N)C(=O)N[C@@H](CCCN)C(=O)N[C@@H](CCCCN)C(=O)N1)C(=O)O [compound 79, c[G(All)OrnKG(All)]YL] (H-[AllylGly][Orn]K[AllylGly]YL-OH; staple 1-4)	>1291
NCCCC[C@@H]1NC(=O)[C@H](CCCCN)NC(=O)[C@@H](N)CC=CC[C@@H](C(=O)N[C@@H](Cc2ccc(O)cc2)C(=O)N[C@@H](CC2CC2)C(=O)O)NC1=O [compound 65, c[G(All)KKG(All)]YA(cyclopropyl)] (H-[AllylGly]KK[AllylGly]Y[Ala(cPr)]-OH; staple 1-4)	>321

Consider now this further compound.
Reported Selectivity ( CC(C)C[C@H](NC(=O)[C@H](Cc1ccc(O)cc1)NC(=O)[C@@H]1CC=CC[C@@H](N)C(=O)N[C@@H](CCCCN)C(=O)N[C@@H](CCCCN)C(=O)N1)C(=O)O [compound 41, c[G*(All)KKG(All)]YL] (H-[dAllylGly]KK[AllylGly]YL-OH; staple 1-4) ) = >889

====

log10 of IC50 for assorted compounds
Molecular target: hNTS2 receptor (Homo sapiens, UniProt O95665)
Construct: membranes prepared from them
Experiment: Competitive radioligand binding assay on the hNTS2 receptor
Conditions: displacement of 125I-[Tyr3]-NT, membranes of 1321N1 cells expressing hNTS2; read-out: IC50 NTS2 (converted)
*1 amine or outer side, *2 acyl side, *3 side chain or, on linkers, in order; H or OH if unused. Where a SMILES comes first, the peptide text is derived from it. Bridges are numbered along the chain shown (N, C = ends). [ ]: non-standard residue; d: D form. ξ: configuration not given here. ξαMeNle(6-ylidene) = CC(CCCC=[*:3])(N[*:1])C(=O)[*:2]; Phe(4-Br) = N[C@@H](Cc1ccc(Br)cc1)C(=O)O; Cit = NC(=O)NCCC[C@H](N)C(=O)O; AllylGly = C=CC[C@H](N)C(=O)O; Pen = CC(C)(S)[C@H](N)C(=O)O; Orn = NCCC[C@H](N)C(=O)O
Log scale reminder: IC50 in nM, then log10 taken.

Some solved cases for reference:
Compound	System under test	Quantity measured	Measured value
CC(C)C[C@H](NC(=O)[C@H](Cc1ccc(O)cc1)NC(=O)[C@H]1NC(=O)[C@H](CCCCN)NC(=O)[C@H](CCCCN)NC(=O)[C@@H](N)CSSC1(C)C)C(=O)O [compound 153, c[CKKPen]YL] (H-CKK[Pen]YL-OH; disulfide 1-4)	hNTS2 receptor (Homo sapiens, UniProt O95665)	log10 of IC50	1.54
CC(C)C[C@H](NC(=O)[C@H](Cc1ccc(O)cc1)NC(=O)[C@@H]1CC=CC[C@H](N)C(=O)N[C@@H](CCCNC(N)=O)C(=O)N[C@@H](CCCNC(N)=O)C(=O)N1)C(=O)O [compound 148, c[G(All)citrulline-citrullineG (All)]YL] (H-[AllylGly][Cit][Cit][AllylGly]YL-OH; staple 1-4)	hNTS2 receptor (Homo sapiens, UniProt O95665)	log10 of IC50	3.90
CC(C)C[C@H](NC(=O)[C@H](Cc1ccc(Br)cc1)NC(=O)C1(C)CCCC=CC[C@H](N)C(=O)N[C@@H](CCCCN)C(=O)N[C@@H](CCCCN)C(=O)N1)C(=O)O (stereo partly drawn) [compound 130] (H-[AllylGly]KK[ξαMeNle(6-ylidene)][Phe(4-Br)]L-OH; staple 1-4)	hNTS2 receptor (Homo sapiens, UniProt O95665)	log10 of IC50	1.01
CC(C)C[C@H](NC(=O)[C@H](Cc1ccc(O)cc1)NC(=O)[C@@H]1CC=CC[C@H](N)C(=O)N[C@@H](CCCCN)C(=O)N[C@@H](CCCN)C(=O)N1)C(=O)O [compound 51, c[G(All)KOrnG(All)]YL] (H-[AllylGly]K[Orn][AllylGly]YL-OH; staple 1-4)	hNTS2 receptor (Homo sapiens, UniProt O95665)	log10 of IC50	1.85

# lookup: CC(C)C[C@H](NC(=O)[C@H](Cc1ccc(O)cc1)NC(=O)[C@@H]1CCC(=O)NCCC[C@H](N)C(=O)N[C@@H](CCCCN)C(=O)N[C@@H](CCCCN)C(=O)N1)C(=O)O [compound 100, c[OrnKKE]YL] (H-[Orn]KKEYL-OH; lactam 1-4) on hNTS2 receptor (Homo sapiens, UniProt O95665), log10 of IC50 = 3.65

====

Target: hNTS2 receptor (Homo sapiens, UniProt O95665)
Construct: membranes prepared from them
Assay: Competitive radioligand binding assay on the hNTS2 receptor
Conditions: ratio IC50 for NTS1 : IC50 for NTS2
Where a SMILES comes first, the peptide text is derived from it. Bridges are numbered along the chain shown (N, C = ends). [ ]: non-standard residue; d: D form. Bip = N[C@@H](Cc1ccc(-c2ccccc2)cc1)C(=O)O; AllylGly = C=CC[C@H](N)C(=O)O; hLys = NCCCCC[C@H](N)C(=O)O
The compounds listed here are annotated with their Selectivity.
Note: the reply should be a number with no unit written.

Measured Selectivity, CC(C)C[C@H](NC(=O)[C@H](Cc1ccc(-c2ccccc2)cc1)NC(=O)[C@@H]1CC=CC[C@H](N)C(=O)N[C@@H](CCCCN)C(=O)N[C@@H](CCCCN)C(=O)N1)C(=O)O [compound 139, c[G(All)KKG(All)]A (biphenyl)L] (H-[AllylGly]KK[AllylGly][Bip]L-OH; staple 1-4) : 2061

// sample CC(C)C[C@H](NC(=O)[C@H](Cc1ccc(Br)cc1)NC(=O)[C@@H]1CC=CCCC(=O)N[C@@H](CCCCN)C(=O)N[C@@H](CCCCN)C(=O)N1)C(=O)O [compound 131, c[K(pentenoyl)KG(All)](4-bromo)L] , its Selectivity was 3650

compound CC(C)C[C@H](NC(=O)[C@H](Cc1ccc(O)cc1)NC(=O)[C@@H]1CC=CC[C@H](N)C(=O)N[C@@H](CCCCN)C(=O)N[C@@H](CCCCCN)C(=O)N1)C(=O)O [compound 149, c[G(All)KhomolysineG(All)]YL] (H-[AllylGly]K[hLys][AllylGly]YL-OH; staple 1-4) , Selectivity observed: 468

====

The entries below are paired with their reported Selectivity.
Molecular target: hNTS2 receptor (Homo sapiens)
Construct: membranes prepared from them
Experiment: Competitive radioligand binding assay on the hNTS2 receptor
Details: ratio IC50 for NTS1 : IC50 for NTS2
Where a SMILES comes first, the peptide text is derived from it. Bridges are numbered along the chain shown (N, C = ends). [ ]: non-standard residue; d: D form. Phe(4-Br) = N[C@@H](Cc1ccc(Br)cc1)C(=O)O; Ala(cPent) = N[C@@H](CC1CCCC1)C(=O)O; Tic = O=C(O)[C@@H]1Cc2ccccc2CN1; AllylGly = C=CC[C@H](N)C(=O)O; Orn = NCCC[C@H](N)C(=O)O; Dab = NCC[C@H](N)C(=O)O; Dap = NC[C@H](N)C(=O)O

These recorded examples may help you get a feel for the data.
Molecule	Measured value
CC(C)C[C@H](NC(=O)[C@H](Cc1ccc(O)cc1)NC(=O)[C@@H]1CCCC[C@H](N)C(=O)N[C@@H](CCCCN)C(=O)N[C@@H](CCCCN)C(=O)N1)C(=O)O [compound 47, Dihydro-c[G(All)KKG(All)]YL]	>1064
CC(C)C[C@H](NC(=O)[C@H](Cc1ccc(O)cc1)NC(=O)[C@@H]1CC=CC[C@H](N)C(=O)N[C@H](Cc2c[nH]cn2)C(=O)N[C@@H](CCCCN)C(=O)N1)C(=O)O [compound 84, c[G(All)H*KG(All)]YL] (H-[AllylGly][dH]K[AllylGly]YL-OH; staple 1-4)	>154.9
CC(C)C[C@H](NC(=O)[C@H](Cc1ccc(O)cc1)NC(=O)[C@@H]1CC=CC[C@H](N)C(=O)N[C@@H](CCCCN)C(=O)N[C@H](CCCCN)C(=O)N1)C(=O)O [compound 54, c[G(All)KK*G(All)]YL] (H-[AllylGly]K[dK][AllylGly]YL-OH; staple 1-4)	>311.9

Entry CC(C)C[C@H](NC(=O)[C@H](Cc1ccc(O)cc1)NC(=O)[C@@H]1CCNC(=O)CC[C@H](N)C(=O)N[C@@H](CCCCN)C(=O)N[C@@H](CCCCN)C(=O)N1)C(=O)O [compound 104, c[EKKDab]YL] (H-EKK[Dab]YL-OH; lactam 1-4) ; Selectivity = >6.1

Value of measured Selectivity for the entry CC(C)C[C@@H](NC(=O)[C@H](Cc1ccc(O)cc1)NC(=O)[C@@H]1CC=CC[C@H](N)C(=O)N[C@@H](CCCCN)C(=O)N[C@@H](CCCCN)C(=O)N1)C(=O)O [compound 38, c[G(All)KKG(All)]YL*] (H-[AllylGly]KK[AllylGly]Y[dL]-OH; staple 1-4) : > 2.4

# molecule CC(C)C[C@H](NC(=O)[C@H](Cc1ccc(O)cc1)NC(=O)[C@@H]1CC(=O)NCCC[C@H](N)C(=O)N[C@@H](CCCCN)C(=O)N[C@@H](CCCCN)C(=O)N1)C(=O)O [compound 96, c[OrnKKD]YL] (H-[Orn]KKDYL-OH; lactam 1-4) ; its Selectivity = >51.8

// sample CC(C)C[C@H](NC(=O)[C@@H]1Cc2ccccc2CN1C(=O)[C@@H]1CC=CC[C@H](N)C(=O)N[C@@H](CCCCN)C(=O)N[C@@H](CCCCN)C(=O)N1)C(=O)O [compound 167, c[G(All)KKG(All)]G(Tic)*L*] (H-[AllylGly]KK[AllylGly][Tic]L-OH; staple 1-4) , its Selectivity was 1040

According to the records, this molecule CC(C)C[C@H](NC(=O)[C@H](Cc1ccc(O)cc1)NC(=O)[C@@H]1CC=CC[C@H](NC(=O)[C@@H](N)CCCCN)C(=O)N[C@@H](CCCCN)C(=O)N[C@@H](CCCCN)C(=O)N1)C(=O)O [compound 156, Kc[G(All)KKG(All)]YL] (H-K[AllylGly]KK[AllylGly]YL-OH; staple 2-5) displays Selectivity of 15244

Selectivity reported for this molecule CC(C)C[C@H](NC(=O)[C@H](Cc1ccc(O)cc1)NC(=O)[C@@H]1CCC(=O)NCCC[C@H](N)C(=O)N[C@@H](CCCCN)C(=O)N[C@@H](CCCCN)C(=O)N1)C(=O)O [compound 100, c[OrnKKE]YL] (H-[Orn]KKEYL-OH; lactam 1-4) : >22

NCCCC[C@@H]1NC(=O)[C@H](CCCCN)NC(=O)[C@@H](N)CC=CC[C@@H](C(=O)N[C@@H](Cc2ccc(Br)cc2)C(=O)N[C@@H](CC2CCCC2)C(=O)O)NC1=O [compound 127] (H-[AllylGly]KK[AllylGly][Phe(4-Br)][Ala(cPent)]-OH; staple 1-4) has a reported Selectivity of 49505

Reported Selectivity ( CC(C)C[C@H](NC(=O)[C@H](Cc1ccc(O)cc1)NC(=O)[C@@H]1CC=CC[C@H](N)C(=O)N[C@@H](CN)C(=O)N[C@@H](CCCCN)C(=O)N1)C(=O)O [compound 81, c[G(All)DapKG(All)]YL] (H-[AllylGly][Dap]K[AllylGly]YL-OH; staple 1-4) ) = >557.2
